biological target: Serine/threonine-protein kinase pim-2 (Homo sapiens); details: at 1 µM;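 also: each value is a mean of the inhibition measurements against the kinase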
Examples of compounds with documented inhibition follow.

Take a look at these entries with their results.
# smiles.str, result
measured = [
    ("COc1cc2ncn(-c3cc(OCc4ccccc4C(F)(F)F)c(C(=O)N(C)C)s3)c2cc1OC", "0.27%"),
    ("N#Cc1c(NC(=O)CN2CCOCC2)sc2c1CCCC2", "1.1%"),
    ("[O-][S+]1CCN(Cc2ccc(-c3ccc4ncnc(Nc5ccc(OCc6cccc(F)c6)c(Cl)c5)c4c3)o2)CC1", "0.11%"),
]

So for Fc1ccc(-c2cc(-c3c[nH]nc3-c3ccccn3)ccn2)cc1 , the logged inhibition turned out to be -1.45%

----------
target: cGMP-dependent protein kinase 1 (Homo sapiens); details: at 1 µM;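 also: listed percent inhibition of PRKG1 is a mean value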
reported.property: inhibition (%)
A number alone suffices; assume %.

Take a look at these entries with their results.
# compound, inhibition (%)
records = [
    ("Clc1ccc(-c2nn3ncccc3c2-c2ccnc(Nc3ccccc3)n2)cc1", 5.54),
    ("COc1cc2c(cc1Nc1nc(Nc3ccsc3C(N)=O)c3cc[nH]c3n1)N(C(=O)CN(C)C)CCC2(C)C", 8.75),
    ("COc1ccc2c(-c3ccnc(Nc4cccc(OC(F)(F)F)c4)n3)cnn2n1", 14.2),
    ("NS(=O)(=O)c1ccc(N/N=C2\\C(=O)Nc3ccc4ncccc4c32)cc1", 22.6),
    ("COc1cc(/C=N/Nc2ncnc3[nH]ncc23)ccc1O", 14.8),
    ("CC(C)COC(=O)c1ccc2c(c1)/C(=C/Nc1ccc(S(N)(=O)=O)cc1)C(=O)N2", 14.3),
    ("CC1=C(C(=O)Nc2cc(Cl)c3[nH]ncc3c2)C(c2ccc(C(F)(F)F)cc2)CC(=O)N1 (configuration not stated)", 67.9),
    ("Cc1ccc(O)cc1Nc1ccnc2cc(-c3ccccn3)ccc12", 1.99),
    ("COc1ccc(-c2nn3ncccc3c2-c2ccnc(Nc3ccc4c(c3)OCCO4)n2)cc1", -2.7),
    ("c1ccc(-c2nc3n(c2-c2ccc4c(c2)OCO4)CCC3)nc1", 2.75),
]

So for CNC(=O)c1cncc(/C=C/c2ccccc2Cl)c1 , the logged inhibition turned out to be 2.29

So for Fc1ccc(-c2cc(-c3c[nH]nc3-c3ccccn3)ccn2)cc1 , the logged inhibition turned out to be 4.77

----------
Examples of compounds with documented inhibition follow.
molecular target: Mitogen-activated protein kinase 12 (Homo sapiens) (UniProt P53778); details: at 0.1 µM
Sequence (P53778 whole entry): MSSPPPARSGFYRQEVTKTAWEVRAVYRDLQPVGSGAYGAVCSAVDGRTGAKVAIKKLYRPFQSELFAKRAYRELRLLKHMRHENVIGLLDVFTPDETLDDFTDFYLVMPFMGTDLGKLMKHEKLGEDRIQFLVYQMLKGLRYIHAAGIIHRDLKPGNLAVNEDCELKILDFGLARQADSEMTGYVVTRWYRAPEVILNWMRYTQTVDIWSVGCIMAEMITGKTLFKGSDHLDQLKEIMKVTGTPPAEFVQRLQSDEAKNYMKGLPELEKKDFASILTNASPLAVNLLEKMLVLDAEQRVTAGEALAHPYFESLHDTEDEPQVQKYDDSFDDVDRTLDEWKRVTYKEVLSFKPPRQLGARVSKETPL
Description: GSK_PKIS: P38gamma mean inhibition at 0.1 uM [Nanosyn]
A number alone suffices; assume %.

Take a look at these entries with their results.
# smiles.str, display.unit, inhibition
records = [
    ("COc1ccc2c(-c3ccnc(Nc4cccc(OC(F)(F)F)c4)n3)cnn2n1", "%", 1.78),
    ("CCn1cc(-c2ccnc3[nH]ccc23)c(-c2cccc(NC(=O)Nc3ccc(OCc4ccccc4)cc3)c2)n1", "%", -1.09),
    ("N#Cc1c(NC(=O)c2ccc(F)cc2)sc2c1CCCC2", "%", 0.35),
    ("O=C(Nc1n[nH]c2cc(-c3ccc(F)cc3)ccc12)C1CC1", "%", 2.05),
    ("COc1ccc(-c2nn3ncccc3c2-c2ccnc(Nc3ccc4c(c3)OCCO4)n2)cc1", "%", 0.47),
    ("Cc1cccc2c1NC(=O)/C2=N\\Nc1ccc(S(N)(=O)=O)cc1", "%", -3.68),
    ("Fc1ccc(-c2nn3ccccc3c2-c2ccncc2)cc1", "%", 1.66),
    ("Fc1cccc(COc2ccc(Nc3ncnc4sc(-c5ccco5)cc34)cc2Cl)c1", "%", 3.22),
]

So for Cc1cccc(Nc2ncc(-c3ccccc3)o2)c1 , the logged inhibition turned out to be 2.73

So for CCc1nn2ncccc2c1-c1ccnc(NC2CC2)n1 , the logged inhibition turned out to be 2.35

So for Fc1ccc(-c2nn3ncccc3c2-c2ccnc(Nc3ccc4c(c3)OCCO4)n2)cc1 , the logged inhibition turned out to be 2.92

So for Nc1nc(-c2cccc(Cl)c2)c(-c2ccc3ncccc3n2)s1 , the logged inhibition turned out to be 8.76

So for COc1cccc(-n2ncc3c(N/N=C/c4ccc(F)cc4)ncnc32)c1 , the logged inhibition turned out to be -0.23

So for CNC(=O)c1cncc(/C=C/c2ccccc2Cl)c1 , the logged inhibition turned out to be -1.75

So for c1ccc(COc2ccc(Nc3ncnc4ccc(-c5ccco5)cc34)cc2)cc1 , the logged inhibition turned out to be 0.76

So for CN1CCC(n2cnc(-c3ccc(F)cc3)c2-c2ccnc(N)n2)CC1 , the logged inhibition turned out to be 0.59

----------
Examples of molecules with documented inhibition follow.
target: RAF proto-oncogene serine/threonine-protein kinase (Homo sapiens); conditions: at 1 µM;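 also: values are the mean percent inhibition of CRAF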
A number alone suffices; assume %.

So for O=C(O[C@H]1CN[C@H](C#Cc2cc3ncnc(Nc4ccc(Cc5ccccc5)cc4)c3s2)C1)N1CCOCC1 , the logged inhibition turned out to be 0.23

So for CCN(CC)S(=O)(=O)c1ccc(OC)c(Nc2ncc(-c3ccccc3)o2)c1 , the logged inhibition turned out to be -0.65

So for COC(=O)Nc1nc2ccc(S(=O)(=O)c3ccc(NC(=O)Nc4cc(C(F)(F)F)ccc4F)cc3)cc2[nH]1 , the logged inhibition turned out to be -2.68

----------
biological target: Hepatocyte growth factor receptor (Homo sapiens); settings: at 1 µM;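 also: each value is an averaged inhibition figure for MET, taken as the mean across measurements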
Examples of compounds with documented inhibition follow.
A number alone suffices; assume %.

# smiles.str, display.unit, inhibition
measured = [
    ("O=C(O[C@H]1CN[C@H](C#Cc2cc3ncnc(Nc4ccc(Cc5ccccc5)cc4)c3s2)C1)N1CCOCC1", "%", 4.56),
    ("N#Cc1c(NC(=O)CN2CCOCC2)sc2c1CCCC2", "%", 13),
    ("CCNC(=O)O[C@H]1CN[C@H](C#Cc2cc3ncnc(Nc4ccc(OCc5cccc(F)c5)c(Cl)c4)c3s2)C1", "%", 1.15),
    ("CC(=O)NCc1cccc(C#Cc2cncnc2Nc2ccc(OCc3cccc(F)c3)c(Cl)c2)c1", "%", 1.83),
]

Proceeding to the next compound to report its inhibition.
So for CS(=O)(=O)CCNCc1coc(-c2ccc3ncnc(Nc4ccc(OCc5ccccc5)cc4)c3c2)c1 , the logged inhibition turned out to be 9.58

----------
target: Casein kinase I isoform gamma-3 (Homo sapiens); details: at 0.1 µM;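 also: reported value is the mean percent inhibition of the kinase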
reported.property: inhibition (%)
A number alone suffices; assume %.

Take a look at these entries with their results.
# smiles.str, inhibition, %
rows = [
    ("c1ccc(COc2ccc(Nc3ncnc4ccc(-c5ccco5)cc34)cc2)cc1", 0.33),
    ("COC(=O)c1sc(-n2cnc3cc(OC)c(OC)cc32)cc1OCc1ccccc1C(F)(F)F", 3.9),
    ("Clc1ccc(-c2nn3ncccc3c2-c2ccnc(Nc3ccccc3)n2)cc1", 1.6),
]

So for COc1cc(/C=N/Nc2ncnc3[nH]ncc23)ccc1O , the logged inhibition turned out to be 3.84

So for Nc1ncc(-c2cccc(S(N)(=O)=O)c2)c2scc(-c3ccc(F)c(Cl)c3)c12 , the logged inhibition turned out to be 2.58

So for O=S(=O)(CCNCc1ccc(-c2ccc3ncnc(Nc4ccc(OCc5cccc(F)c5)c(Cl)c4)c3c2)o1)c1ccccc1 , the logged inhibition turned out to be 4.59

So for COc1cccc(-n2ncc3c(N/N=C/c4ccc(F)cc4)ncnc32)c1 , the logged inhibition turned out to be 3.39

So for Nc1nc(-c2ccc(F)cc2)c(-c2ccc3ncccc3n2)s1 , the logged inhibition turned out to be 4.7

----------
tested on: Serine/threonine-protein kinase B-raf (Homo sapiens), P15056 [V600E]; conditions: at 0.1 µM;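 also: mean inhibition of the BRAF V599E mutant, from GSK PKIS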
Sequence (P15056 whole entry V600E): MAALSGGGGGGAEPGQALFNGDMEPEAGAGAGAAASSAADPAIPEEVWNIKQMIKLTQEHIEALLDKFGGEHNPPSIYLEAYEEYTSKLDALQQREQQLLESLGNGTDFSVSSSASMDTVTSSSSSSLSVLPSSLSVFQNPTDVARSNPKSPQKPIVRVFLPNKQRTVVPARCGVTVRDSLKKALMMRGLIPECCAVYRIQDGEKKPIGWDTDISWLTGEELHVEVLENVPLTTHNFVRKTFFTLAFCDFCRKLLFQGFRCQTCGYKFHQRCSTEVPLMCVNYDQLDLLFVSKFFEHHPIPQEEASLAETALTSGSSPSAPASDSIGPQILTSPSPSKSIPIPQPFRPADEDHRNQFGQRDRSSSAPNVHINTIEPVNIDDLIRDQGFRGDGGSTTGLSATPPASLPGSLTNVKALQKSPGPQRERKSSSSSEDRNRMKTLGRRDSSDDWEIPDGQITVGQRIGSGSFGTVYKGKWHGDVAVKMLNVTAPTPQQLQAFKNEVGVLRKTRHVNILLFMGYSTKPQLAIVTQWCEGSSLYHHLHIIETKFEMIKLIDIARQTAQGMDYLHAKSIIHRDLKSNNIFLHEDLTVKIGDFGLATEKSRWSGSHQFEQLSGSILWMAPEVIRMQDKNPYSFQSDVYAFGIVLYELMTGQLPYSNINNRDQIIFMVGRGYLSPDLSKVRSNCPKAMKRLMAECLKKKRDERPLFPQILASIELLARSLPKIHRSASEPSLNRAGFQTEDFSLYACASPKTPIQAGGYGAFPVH
Description: GSK_PKIS: BRAF (V599E mutant) mean inhibition at 0.1 uM [Nanosyn]
Examples of compounds with documented inhibition follow.
A number alone suffices; assume %.

Take a look at these entries with their results.
# smiles.str, inhibition (%)
measured = [
    ("O=S(=O)(CCNCc1ccc(-c2ccc3ncnc(Nc4ccc(OCc5cccc(F)c5)c(Cl)c4)c3c2)o1)c1ccccc1", 6.36),
    ("COc1cc2c(cc1Nc1nc(Nc3ccsc3C(N)=O)c3cc[nH]c3n1)N(C(=O)CN(C)C)CCC2(C)C", 7.15),
    ("CNC(=O)c1cccc(C#Cc2cncnc2Nc2ccc(OCc3cccc(F)c3)c(Cl)c2)c1", 0.09),
]

So for COC(=O)c1sc(-n2cnc3cc(OC)c(OC)cc32)cc1OCc1ccccc1C(F)(F)F , the logged inhibition turned out to be 6.02

----------
Examples of compounds with documented inhibition follow.
molecular target: Tyrosine-protein kinase TXK (Homo sapiens); details: at 1 µM;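 also: value given is the mean percent inhibition of TXK kinase activity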
A number alone suffices; assume %.

Take a look at these entries with their results.
# smiles.str, display.unit, numeric.result
measured = [
    ("COc1ccc(-c2oc3ncnc(N)c3c2-c2ccc(NC(=O)Nc3cc(C(F)(F)F)ccc3F)cc2)cc1", "%", 8.48),
    ("COc1cccc(-c2c[nH]c3c(N/N=C/c4ccncc4)ncnc23)c1", "%", 16.8),
    ("COc1ccc(-c2cc(-c3c[nH]nc3-c3ccccn3)ccn2)cc1", "%", 3.18),
    ("CCOc1ccc2c(-c3ccnc(Nc4cccc(C(F)(F)F)c4)n3)cnn2n1", "%", 3.47),
    ("COc1cc2ncn(-c3cc(OCc4ccccc4C(F)(F)F)c(C(=O)N(C)C)s3)c2cc1OC", "%", 3.4),
]

So for Nc1ncc(-c2cccc(S(N)(=O)=O)c2)c2scc(-c3ccc(F)c(Cl)c3)c12 , the logged inhibition turned out to be 91.6

So for O=C(O[C@H]1CN[C@H](C#Cc2cc3ncnc(Nc4ccc(Cc5ccccc5)cc4)c3s2)C1)N1CCOCC1 , the logged inhibition turned out to be 1.36

So for COc1cc(N2CCN(C(C)C)CC2)ccc1Nc1nc(Nc2ccc(F)cc2C(N)=O)c2cc[nH]c2n1 , the logged inhibition turned out to be 5.7

So for Cc1cccc2c1NC(=O)/C2=N\Nc1ccc(S(N)(=O)=O)cc1 , the logged inhibition turned out to be 6.66

So for CCn1c(-c2nonc2N)nc2c(C#CC(C)(C)O)ncc(OC3CCNCC3)c21 , the logged inhibition turned out to be 3.86

So for Fc1cccc(COc2ccc(Nc3ncnc4sc(-c5ccco5)cc34)cc2Cl)c1 , the logged inhibition turned out to be 3.65

So for CCn1c(-c2nonc2N)nc2cnc(Oc3cccc(NC(=O)c4ccc(N(C)C)cc4)c3)cc21 , the logged inhibition turned out to be 3.29

So for COc1ccc2c(-c3ccnc(Nc4cccc(OC(F)(F)F)c4)n3)cnn2n1 , the logged inhibition turned out to be 5.53

So for CN(C)CCOc1ccc(-c2nc(-c3ccncc3)c(-c3ccc4c(c3)CC/C4=N\O)[nH]2)cc1 , the logged inhibition turned out to be 3.33

So for COc1ccc(CNC(=O)c2ccc(-c3cc(-c4nnc(C)o4)ccc3C)cc2)cc1 , the logged inhibition turned out to be 3.7

So for COC(=O)Nc1nc2ccc(S(=O)(=O)c3ccc(NC(=O)Nc4cc(C(F)(F)F)ccc4F)cc3)cc2[nH]1 , the logged inhibition turned out to be 4.65

The measured values listed here are drawn from ChEMBL document CHEMBL1961873.
